glycan array binding signal (z-score) values, listed per item
Molecular target: Gal(b1-3)GalNAc(b1-3)Gal(b1-4)Glc
Assay: glycan array binding signal (z-score within array); higher = stronger binding
Conditions: glycan notation: IUPAC condensed, linker removed
Many of the other results were omitted from the sample, so the strongest signals are more common in it than they were.

[[record]]
binder = "NKp30 (Homo sapiens), O14931 (protein) LWVSQPPEIRTLEGSSAFLPCSFNASQGRLAIGSVTWFRDEVVPGKEVRNGTPEFRGRLAPLASSRFLHDHQAELHIRDVRGHDASIYVCRVEVLGLGVGTGNGTRLVVEKEHPQLG"
observed_result = -0.43


Now for another entry.
# input I would be grateful if you could share the reported glycan array binding signal (z-score) for RNase 1 (Bos taurus), P61823 (protein) MALKSLVLLSLLVLVLLLVRVQPSLGKETAAAKFERQHMDSSTSAASSSNYCNQMMKSRNLTKDRCKPVNTFVHESLADVQAVCSQKNVACKNGQTNCYQSYSTMSITDCRETGSSKYPNCAYKTTQANKHIIVACEGNPYVPVHFDASV .
# output 0.641
